Hey, just so you know, these numbers are from patent US8969343B2.

Recorded IC50 values for a group of compounds are listed next.
System: JMJD2C (Homo sapiens, UniProt Q9H3R0)

| Compound | Value type | Measured value |
| --- | --- | --- |
| Cc1ccc2c(c1)c(Nc1cnccc1C(=O)O)nn2CCC(F)(F)F [Example 39] | IC50 | 100 to 1000 nM |
| N#CNC(=O)c1ccncc1Nc1nn([C@H]2CCOC2)c2ccc(F)cc12 [Example 70] | IC50 | 1000 to 10000 nM |
| O=C(O)c1ccncc1Nc1nn(CC2CC2)c2ccc(Cl)cc12 [Example 34] | IC50 | 100 to 1000 nM |
| N#CNC(=O)c1ccncc1Nc1nn(CCN2CCC(F)(F)CC2)c2ccc(F)cc12 [Example 74] | IC50 | 1000 to 10000 nM |
| O=C(O)c1ccncc1Nc1nn(CCC(F)(F)F)c2ccc(F)cc12 [Example 32] | IC50 | 100 to 1000 nM |
| Cc1ccc2c(Nc3cnccc3C(=O)O)nn(C)c2c1 [Example 5] | IC50 | 100 to 1000 nM |
| CCCn1nc(Nc2cnccc2C(=O)O)c2cc(C)ccc21 [Example 38] | IC50 | 100 to 1000 nM |
| O=C(O)c1ccncc1Nc1nn(CC(F)(F)F)c2ccc(F)cc12 [Example 23] | IC50 | 100 to 1000 nM |

Okay, next one:
For the compound O=C(O)c1ccncc1Nc1nn(CC2CCCO2)c2ccc(F)cc12 (stereo not drawn) [Example 21] , what IC50 is on record?
100 to 1000 nM

###

IC50 tested on JMJD2C (Homo sapiens): recorded values

| Compound | IC50 |
| --- | --- |
| CCCn1nc(Nc2cnccc2C(=O)O)c2cc(F)ccc21 | 100 to 1000 nM |

IC50 for `O=C(O)c1ccncc1Nc1nn(C2CCOCC2)c2ccc(F)cc12` ?
100 to 1000 nM

Can you look up the measured IC50 of `O=C(O)c1ccncc1Nc1nn(CC2CCC2)c2ccc(F)cc12` for me?
100 to 1000 nM

Given the entry O=C(O)c1ccncc1Nc1nn(C2CCOC2)c2ccc(Cl)cc12 (centres unmarked) , report its measured IC50.
100 to 1000 nM

Look up IC50: `CCCCCn1nc(Nc2cnccc2C(=O)O)c2cc(F)ccc21`
100 to 1000 nM

###

System: JMJD2C (Homo sapiens)
Sequence (Q9H3R0 2-372): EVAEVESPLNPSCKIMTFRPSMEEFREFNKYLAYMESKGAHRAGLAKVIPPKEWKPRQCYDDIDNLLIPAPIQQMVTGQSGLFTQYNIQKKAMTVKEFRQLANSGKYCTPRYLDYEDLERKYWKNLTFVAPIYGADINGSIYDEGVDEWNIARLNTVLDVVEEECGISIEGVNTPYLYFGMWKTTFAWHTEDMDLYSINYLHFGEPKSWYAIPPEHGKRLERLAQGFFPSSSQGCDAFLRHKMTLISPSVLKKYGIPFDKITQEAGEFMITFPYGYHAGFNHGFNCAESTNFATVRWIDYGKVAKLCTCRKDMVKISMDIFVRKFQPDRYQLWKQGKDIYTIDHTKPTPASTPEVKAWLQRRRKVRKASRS
pIC50: −log10 of the molar value. Counter-ions that a name gives are not always drawn.
Value type: pIC50

| Compound | pIC50 |
| --- | --- |
| O=C(O)c1ccncc1Nc1nn(C2CCCC2)c2ccc(F)cc12 [Example 29] | 6.00 to 7.00 |
| O=C(O)c1ccncc1Nc1nn(CC2CC2)c2ccc(F)cc12 [Example 16] | 6.00 to 7.00 |
| O=C(O)c1ccncc1Nc1cn(C2CCOC2)c2ccc(F)cc12 (centres unmarked) [Example 68] | 6.00 to 7.00 |

Return reported pIC50; argument: CNCCCCCn1nc(Nc2cnccc2C(=O)O)c2cc(F)ccc21 [Example 46, trifluoroacetic acid salt]
> 7.00

// returns reported pIC50 for input O=C(O)c1ccncc1Nc1nn(CC2CCCC2)c2ccc(F)cc12 [Example 30]
6.00 to 7.00
